Test system: L1210 leukemia ip in BDF1 mice, survival T/C
assay: NCI In Vivo Anticancer Drug Screen. Data for tumor model L1210 Leukemia (intraperitoneal) in B6D2F1 (BDF1) mice
assay setup: endpoint: mean survival time; dose: 200.0 mg/kg/injection; schedule: Q01DX009 (ip); vehicle: saline with Tween-80; higher = longer survival
Toxic doses and inconclusive results are not listed.
quantity kind: T/C

Solved entries:
compound smiles	quantity kind	result
CC(=O)NCCCCC(=O)c1ccccc1	T/C	100 % of control
CC(C)c1ccc(C(=O)O)cc1S(=O)(=O)F	T/C	98 % of control

Give recorded T/C with L1210 leukemia ip in BDF1 mice, survival T/C for the following compound: COc1ccc([N+](=O)[O-])c(O)c1C 96 % of control

Here is the next compound: Cc1ccc(C(=O)O)cc1 88 % of control

Try the compound COc1cc(/C=N/NC(=O)c2cccs2)cc(OC)c1OC 94 % of control

What about this compound? COc1cc2c(cc1O)C(=O)CCC(C(=O)O)=C2 96 % of control

###

Tested on: L1210 leukemia ip in BDF1 mice, survival T/C
assay: NCI In Vivo Anticancer Drug Screen. Data for tumor model L1210 Leukemia (intraperitoneal) in B6D2F1 (BDF1) mice
assay setup: endpoint: mean survival time; dose: 200.0 mg/kg/injection; schedule: Q01DX001 (ip); vehicle: carboxymethylcellulose (CMC); higher = longer survival
Experimental: The antitumor activity of compounds was measured in mice bearing transplantable tumors. Survival or tumor size were measured and the results are expressed as the measurement made in the treated group (T) divided by the measurement made in the vehicle treated control group (C). The tumor model used in this assay is L1210 Leukemia (intraperitoneal) in B6D2F1 (BDF1) mice
Toxic doses and inconclusive results are not listed.
quantity kind: T/C

compound smiles	target	T/C
C#CC(OC(=O)NC1CCCCC1)(c1ccccc1)c1ccccc1	L1210 leukemia ip in BDF1 mice, survival T/C	104 % of control
O=C(NO)C(=O)NCc1ccccc1	L1210 leukemia ip in BDF1 mice, survival T/C	96 % of control

T/C for O=C1c2ccccc2C(=O)c2c1ccc1c2[nH]c2ccccc21 ? 91 % of control

Entry to check: CC(=O)Nc1ccc(/C=N/NC(=O)C(O)(c2ccccc2)c2ccccc2)cc1 103 % of control

Query Nc1nc(C(=O)O)cc(=O)[nH]1 next 113 % of control

Again, but for CCCCCCCC(=O)N(CCCCC)CCCCC 96 % of control

Another molecule to look at: O=C1N(Cl)C(=O)C(c2ccc(Cl)cc2)(c2ccc(Cl)cc2)N1Cl 102 % of control

Likewise for O=S(=O)(CS(=O)(=O)Oc1ccccc1)Oc1ccccc1 ? 102 % of control

Okay, and Nc1nc(N)c2[nH]cnc2n1 ? 90 % of control

###

# T/C per entry
Test system: L1210 leukemia ip in BDF1 mice, survival T/C
assay: NCI In Vivo Anticancer Drug Screen. Data for tumor model L1210 Leukemia (intraperitoneal) in B6D2F1 (BDF1) mice
assay setup: endpoint: mean survival time; dose: 20.0 mg/kg/injection; schedule: Q01DX001 (ip); vehicle: saline; higher = longer survival
Inconclusive results and toxic doses are left out.

Reference set (5 entries):
compound smiles	T/C
O=[As](O)(O[As](=O)(O)c1ccccc1)c1ccccc1	103 % of control
N#CCC[P+](c1ccccc1)(c1ccccc1)c1ccccc1	102 % of control
CCCCCCCCCCCCCCCCC1=NCCN1	97 % of control
Nc1ncccc1O	95 % of control
CC(=O)Nc1ncccc1C	101 % of control

Given the entry CC(=O)N(N=O)c1ccc(N(N=O)C(C)=O)cc1 , report its measured T/C. 112 % of control
